System: OVCAR-4 ovarian
TEST PROTOCOL: NCI-60 one-dose screen, 48 h
EXPERIMENTAL SETUP: 10 µM unless noted
Compounds without any hit were thinned out: in the full panel of roughly 83,000, 20% have a hit. Active and inactive are the calls of the source. How the source made its calls: active means growth percent below 10; inactive means the rest.
Give your call using only these classes: True for active, False for inactive

Which result was noted for this molecule in the test: COc1cc(C2CC(=O)Nc3nc(N)[se]c32)c(OC)c2c1OCO2 (stereo not drawn) False

Which result was noted for this molecule in the test: CCOP(=O)(OCC)Oc1ccc(Sc2ccc(OP(=O)(OCC)OCC)cc2)cc1 False

Which result was noted for this molecule in the test: CNC(=O)Oc1ccccc1 False

Which result was noted for this molecule in the test: C[CH2][Pb]([CH2]C)([CH2]C)[O]C(=O)c1ccc(N)cc1 False

Which result was noted for this molecule in the test: O=C(O)C1[O][Sb][O]C1C(=O)O (stereo not drawn) False

Which result was noted for this molecule in the test: O=C1NC(=O)C(O)(C2(O)C(=O)NC(=O)NC2=O)C(=O)N1 False

Which result was noted for this molecule in the test: CC1(C)N=C(N)N=C(N)N1c1cccc(C(=O)Nc2cccc(S(=O)(=O)F)c2)c1 False

Which result was noted for this molecule in the test: Cc1ccc(N)cc1[As]=[As]c1cc(N)ccc1C (stereo not drawn) True

Which result was noted for this molecule in the test: CNC(=O)O/N=C(/C)c1ccc(Cl)cc1 False

Which result was noted for this molecule in the test: O=[N+]([O-])c1ccc(F)c([N+](=O)[O-])c1F False

Which result was noted for this molecule in the test: CC(C)CCC1(CCO)C(=O)NC(=S)NC1=O False

Which result was noted for this molecule in the test: O=C(O)CNC(=O)c1ccccc1 False

Which result was noted for this molecule in the test: CC(=O)[O][Hg][CH2]C1(C)COC(C)([CH2][Hg][O]C(C)=O)CO1 (stereo not drawn) False

Which result was noted for this molecule in the test: CC(C)Nc1ccc(Nc2ccccc2)cc1 False

Which result was noted for this molecule in the test: CC(=O)O[C@H]1CC[C@H]2[C@@H]3CC[C@H]4CC=C(C)C[C@]4(C)[C@H]3CC[C@]12C False

Which result was noted for this molecule in the test: CCN(CC)c1ccc(C=C2C(=O)NC(=S)NC2=O)cc1 False

Which result was noted for this molecule in the test: CC(=O)O[C@H]1C[C@H](O[C@H]2[C@@H](O)C[C@H](O[C@H]3[C@@H](O)C[C@H](O[C@H]4CC[C@@]5(C)C(CCC6C5C[C@@H](O)[C@]5(C)[C@@H](C7=CC(=O)OC7)CC[C@]65O)C4)O[C@@H]3C)O[C@@H]2C)O[C@H](C)[C@H]1O[C@@H]1O[C@H](CO)[C@@H](O)[C@H](O)[C@H]1O (stereo partly drawn) True

Which result was noted for this molecule in the test: Cc1cc(NC(=O)CCc2ccc(N3C(N)=NC(N)=NC3(C)C)cc2)ccc1S(=O)(=O)F False

Which result was noted for this molecule in the test: C=CC(O)CN1CC1CC (stereo not drawn) False

Which result was noted for this molecule in the test: Nc1ccc([N+](=O)[O-])c2c1Oc1ccccc1O2 False

Which result was noted for this molecule in the test: Oc1ccc(O)c2c1C1(Cl)C(Cl)=C(Cl)C2(Cl)C1(Cl)Cl False

Which result was noted for this molecule in the test: CSc1ccccc1NP1(=O)OCC(C)([N+](=O)[O-])CO1 (stereo not drawn) False

Which result was noted for this molecule in the test: c1cnc2c(c1)ccc1ncccc12 False

Which result was noted for this molecule in the test: CC(/C=N/N=C(N)N)=N\N=C(N)N False

Which result was noted for this molecule in the test: N#CC1c2ccccc2C=CN1C(=O)c1ccc(N(CCCl)CCCl)cc1 (stereo not drawn) False

Which result was noted for this molecule in the test: O=CN1N=C(c2ccccc2)CC1c1sc(N(CCCl)CCCl)nc1Cl (stereo not drawn) False

Which result was noted for this molecule in the test: O=C1NC(=O)C(Cc2ccccc2)(Cc2ccccc2)C(=O)N1 False

Which result was noted for this molecule in the test: CCC(CC)(c1ccccc1)C(OC(N)=O)c1ccccc1 (stereo not drawn) False

Which result was noted for this molecule in the test: CCCCN(CCCC)CC(O)c1ccccc1 (stereo not drawn) False

Which result was noted for this molecule in the test: O=[As]c1ccc(C(=O)c2ccc(Oc3ccccc3)cc2)cc1 (stereo not drawn) True

Which result was noted for this molecule in the test: CC(C)CCC[C@@H](C)[C@H]1CC[C@H]2[C@@H]3CC=C4C[C@@H](OC(=O)Cc5ccc(N(CCCl)CCCl)cc5)CC[C@]4(C)[C@H]3CC[C@]12C False

Which result was noted for this molecule in the test: Nc1c(Br)cc2c3c(cccc13)-c1ccccc1-2 False

Which result was noted for this molecule in the test: O=[N+]([O-])c1ccccc1N1CCNCC1 False
